- measured.on: Multidrug efflux pump subunit AcrB (Escherichia coli (strain K12)) (UniProt P31224)
- Sequence (P31224 whole entry): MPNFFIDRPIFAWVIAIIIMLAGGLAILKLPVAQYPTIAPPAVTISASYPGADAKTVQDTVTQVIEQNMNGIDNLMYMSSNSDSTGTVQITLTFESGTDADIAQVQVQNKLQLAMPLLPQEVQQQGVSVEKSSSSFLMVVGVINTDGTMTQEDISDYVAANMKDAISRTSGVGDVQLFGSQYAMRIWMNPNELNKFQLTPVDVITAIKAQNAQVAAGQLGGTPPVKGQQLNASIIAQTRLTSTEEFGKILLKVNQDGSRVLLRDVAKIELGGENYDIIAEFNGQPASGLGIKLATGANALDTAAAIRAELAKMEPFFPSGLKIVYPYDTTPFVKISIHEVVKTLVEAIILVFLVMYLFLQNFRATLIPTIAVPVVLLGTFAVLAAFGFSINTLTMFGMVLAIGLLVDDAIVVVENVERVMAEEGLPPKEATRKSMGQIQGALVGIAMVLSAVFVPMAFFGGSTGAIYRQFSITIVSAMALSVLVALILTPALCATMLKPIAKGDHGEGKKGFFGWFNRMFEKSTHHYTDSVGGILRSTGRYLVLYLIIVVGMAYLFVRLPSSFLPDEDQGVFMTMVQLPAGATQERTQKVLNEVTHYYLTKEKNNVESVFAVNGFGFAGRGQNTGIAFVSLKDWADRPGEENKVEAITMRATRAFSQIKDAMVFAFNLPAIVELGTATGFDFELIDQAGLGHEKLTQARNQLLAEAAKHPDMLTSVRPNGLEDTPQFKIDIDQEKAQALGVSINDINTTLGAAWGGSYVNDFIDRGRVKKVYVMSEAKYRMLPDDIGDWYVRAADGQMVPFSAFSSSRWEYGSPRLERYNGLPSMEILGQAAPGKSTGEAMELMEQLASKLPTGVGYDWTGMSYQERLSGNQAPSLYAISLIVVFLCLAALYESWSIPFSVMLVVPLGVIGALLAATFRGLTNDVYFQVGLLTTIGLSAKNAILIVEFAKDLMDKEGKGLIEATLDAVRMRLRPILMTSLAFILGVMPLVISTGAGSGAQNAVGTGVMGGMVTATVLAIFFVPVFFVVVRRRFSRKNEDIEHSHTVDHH
- method.notes: Inhibition of AcrB in Escherichia coli BW25113 assessed as potentiation of chloramphenicol induced antibacterial activity by measuring chloramphenicol MIC at 256 ug/ml measured after 18 hrs by checkerboard titration method (reference value: 8 ug/ml)
- assay.conditions: dose 256.0 µg/ml
endpoint.label: MIC (µg/mL)
Numbers only, in µg/mL.

Query block: Note down MIC recorded for Oc1ccc(CCCCc2cc3cccc4ccc5cccc2c5c43)cc1O
Result block: 4

Query block: Supply MIC value. Item: Oc1ccc(CCCc2ccc(O)c(O)c2)cc1O
Result block: 8

Query block: Kindly indicate its recorded MIC. Item: C[C@H](Cc1ccc(O)c(O)c1)[C@@H](C)Cc1ccc(O)c(O)c1
Result block: 2

Query block: Dear colleague, please send me the reported MIC for Oc1ccc(CCCCc2ccc(Cl)cc2)cc1O when you can.
Result block: 16

Query block: Give a short answer stating reported MIC for Oc1ccc(CCCCc2ccc(O)c(O)c2)cc1O .
Result block: 4

Hi team, please reply with MIC for each item in this list.
1. Oc1ccc(CCCCc2ccc(Br)cc2)cc1O
2. Oc1ccc(CCCCc2cc(O)c(O)c(O)c2)cc1O

Result block:
8
1
